Origin of the recorded values: patent US4299970A

We begin with a simple list: items and their reported log10 of IC50.
tested on: gerbil colon; contraction to prostaglandin F2α; experiment: prostaglandin antagonist activity on the isolated perfused gerbil colon (contraction to prostaglandin F2α); settings: Meriones unguiculatus; reduction of contraction to prostaglandin F2α; one minute pre-contact time
In our notation, the value equals log10 of IC50 in mg/L.

CCCCCC(O)CCN1C(=O)CCC(=O)C1CCCCCCC(=O)OCC (centres unmarked) :: 0.53
CCOC(=O)CCCCCCC1C(O)CCC(=O)N1CCCOCc1ccccc1 (centres unmarked) :: 0.49
CCCCCC(CCN1C(=O)CC(O)C1CCCCCCC(=O)OCC)OCc1ccccc1 (centres unmarked) :: -0.77
CCCCCC(CCN1CCCC(O)C1CCCCCCCO)OCc1ccccc1 (centres unmarked) :: -0.96
OCCCCCCCC1C(O)CCCN1CCCOCc1ccccc1 (centres unmarked) :: -0.46

Prompt line: Need log10 of IC50 of CCCCCCCCN1C(=O)CCC(O)C1CCCCCCC (centres unmarked) , thanks.
Response line: 0.19

Prompt line: Need log10 of IC50 of CCCCCCC(O)CCN1C(=O)CC(O)C1CCCCCCC(=O)OCC (centres unmarked) , thanks.
Response line: 0.33

Prompt line: Need log10 of IC50 of CCCCCC(CCN1C(=O)CCC(O)C1CCCCCCC(=O)OCC)OCc1ccccc1 (centres unmarked) , thanks.
Response line: -0.12

---

system: human platelet aggregation induced by collagen; assay: inhibition of human platelet aggregation induced in vitro by collagen; format: cell-based; settings: Platelet, read-out: IC50 against collagen-induced aggregation
metric: pIC50
Friendly reminder that pIC50 comes from taking -log10 of the concentration in mol/L.

Prompt line: Short answer please: pIC50, human platelet aggregation induced by collagen, entry CCCCCC(O)CCN1C(=O)CCC(=O)C1CCCCCCC(=O)OCC (stereo not shown) [Compound 73]
Response line: 5.55

---

tested on: gerbil colon; assay: prostaglandin-like activity on the isolated perfused gerbil colon; details: De Jalon's saline, 32° C.
metric: Concentration/ml. for contractions

Prompt line: Need Concentration/ml. for contractions of CCCCCC(O)CCN1C(=O)CC(=O)C1CCCCCCC(=O)OCC (centres unmarked) , thanks.
Response line: 0.2 to 0.5 µg/mL

Prompt line: Need Concentration/ml. for contractions of CCCCCC(CCN1CCC(O)C1CCCCCCCO)OCc1ccccc1 (centres unmarked) , thanks.
Response line: 0.04 to 0.10 µg/mL

Prompt line: Need Concentration/ml. for contractions of CCOC(=O)CCCCCCC1C(=O)CCC(=O)N1CCCO (centres unmarked) , thanks.
Response line: 4 to 8 µg/mL

Prompt line: Need Concentration/ml. for contractions of CCCCCC(O)CCN1CCC(O)C1CCCCCCCO (centres unmarked) , thanks.
Response line: 0.04 to 0.10 µg/mL

Prompt line: Need Concentration/ml. for contractions of CCCCCC(O)CCN1CCCC(O)C1CCCCCCCO (centres unmarked) , thanks.
Response line: 0.01 to 0.02 µg/mL

---

We begin with a simple list: items and their reported % Depression at 1 mg/kg.
system: arterial blood pressure; assay: effect on arterial blood pressure in the anaesthetised, normotensive rat; format: in vivo; settings: intravenous, dose range 0.001 → 1.0 mg/kg
Only the number, expressed in %, is required.

CCCCCCC(C)(O)CCN1C(=O)CC(=O)C1CCCCCCC(=O)OCC (centres unmarked) :: 60
CCCCCCC(O)CCN1C(=O)CC(=O)C1CCCCCCC(=O)OCC (centres unmarked) :: 30
CCCCCC(C)(O)CCN1C(=O)CC(=O)C1CCCCCCC(=O)OCC (centres unmarked) :: 70
CCCCCCC(O)CCN1CCCC(O)C1CCCCCCCO (centres unmarked) :: 20

Prompt line: Need % Depression at 1 mg/kg of CCCCCCC(O)CCN1C(=O)CCC(=O)C1CCCCCCC(=O)OCC (centres unmarked) , thanks.
Response line: 30
